- Tested on: COLO 205 colon
- assay-summary: NCI-60 one-dose screen, 48 h (100 = growth as untreated, 0 = no growth, -100 = all killed)
- measurement-parameters: 10 µM unless noted
Compounds without any hit were thinned out: in the full panel of roughly 83,000, 20% have a hit.
Parameter: growth. Scope: all listed entries.

>  <compound>
N/C(=N\N=C\c1ccc(-c2ccccc2)cc1)N[N+](=O)[O-]

>  <reading-unit>
%

>  <growth>
24.9

$$$$
>  <compound>
CCC1(C)CC(CCNCc2ccccc2O)(c2ccc(C)cc2)CCO1 (stereo not drawn)

>  <reading-unit>
%

>  <growth>
115

$$$$
>  <compound>
O=C1CCC2(O)[C@@H]3Cc4ccc(O)c5c4[C@]2(CCN3Cc2ccoc2)C1O5 (stereo partly drawn)

>  <reading-unit>
%

>  <growth>
105

$$$$
>  <compound>
CCCCCN(CCCCC)CC(O)c1cc(Cl)ccc1OC (stereo not drawn)

>  <reading-unit>
%

>  <growth>
13.3

$$$$
>  <compound>
CCCCCCCC[N+](C)(CCCCCCCC)CCCCCCCC

>  <reading-unit>
%

>  <growth>
-60.7

$$$$
>  <compound>
CCOc1ccc(/C=C/[N+](=O)[O-])cc1

>  <reading-unit>
%

>  <growth>
94.1

$$$$
>  <compound>
CO[C@H](C(=O)O)[C@@H]1Cc2cc3cc(OC4CC(OC5CC(O)C(O)C(C)O5)C(O)C(C)O4)c(C)c(O)c3c(O)c2C(=O)[C@H]1OC1CC(OC2CC(OC3CC(C)(O)C(O)C(C)O3)C(O)C(C)O2)C(O)C(C)O1 (stereo partly drawn)

>  <reading-unit>
%

>  <growth>
-12.5

$$$$
>  <compound>
COC(=O)[C@@H](C)C[C@H](Cc1ccc2ccccc2c1)NC(=O)c1csc([C@@H](C[C@H](C(C)C)N(C)C(=O)[C@@H](NC(=O)[C@H]2CCCCN2C)C(C)C)OC(C)=O)n1

>  <reading-unit>
%

>  <growth>
-37.9

$$$$
>  <compound>
CCOC(=O)N[C@H]1CCc2c(Br)c(OC)c(OC)c(OC)c2-c2ccc(SC)c(=O)cc21

>  <reading-unit>
%

>  <growth>
5.51

$$$$
>  <compound>
CC1(C)CN1P(=O)(N1CC1(C)C)N1CC1(C)C (stereo not drawn)

>  <reading-unit>
%

>  <growth>
107

$$$$
>  <compound>
CCCc1cc(O)c2c3c(c(=O)oc2c1)CN(C)CC3

>  <reading-unit>
%

>  <growth>
21

$$$$
>  <compound>
[Cl][Hg][c]1cc[c]([Hg][Cl])o1

>  <reading-unit>
%

>  <growth>
6.94

$$$$
>  <compound>
Cc1ccc(C(=O)NCCCOc2ccc(N3C(N)=NC(N)=NC3(C)C)cc2Cl)cc1S(=O)(=O)F

>  <reading-unit>
%

>  <growth>
87.7

$$$$
>  <compound>
NC(=O)C(Br)c1ccccc1 (stereo not drawn)

>  <reading-unit>
%

>  <growth>
103

$$$$
>  <compound>
Nc1ccc2c(c1)oc1ccccc12

>  <reading-unit>
%

>  <growth>
123

$$$$
>  <compound>
CCOc1ccccc1C(=O)OCC(Cl)(Cl)Cl

>  <reading-unit>
%

>  <growth>
102

$$$$
>  <compound>
O=c1[nH]cc(N(CCCl)CCCl)c(=O)[nH]1

>  <reading-unit>
%

>  <growth>
81

$$$$
>  <compound>
CC(C)(C)C(=O)OCOP(=O)(NCc1ccccc1)C1CCCN(O)C1=O (stereo not drawn)

>  <reading-unit>
%

>  <growth>
45.7

$$$$
>  <compound>
O=C1NC(=O)C(=Cc2cccn2CCCCCn2c3ccccc3c(=O)c3ccccc32)C(=O)N1

>  <reading-unit>
%

>  <growth>
114

$$$$
>  <compound>
COc1cc(C=Nc2cccc(Br)c2)ccc1N(CCCl)CCCl

>  <reading-unit>
%

>  <growth>
78.5

$$$$
>  <compound>
COc1ccc([As]=[As]c2ccc(OC)c(NCS(=O)(=O)O)c2)cc1NCS(=O)(=O)O (stereo not drawn)

>  <reading-unit>
%

>  <growth>
2.8

$$$$
>  <compound>
CC(=O)O[C@H]1CC[C@@]2(C)C(=CC[C@H]3[C@@H]4C[C@@H](N5CC5)[C@H](C(C)=O)[C@@]4(C)CC[C@@H]32)C1

>  <reading-unit>
%

>  <growth>
99.2

$$$$
>  <compound>
Nc1ccc(OCCNS(=O)(=O)c2cccc(S(=O)(=O)F)c2)c(Cl)c1

>  <reading-unit>
%

>  <growth>
110

$$$$
>  <compound>
COc1ccc(C/C(C)=C(\c2ccc(OCCN3CCOCC3)cc2)c2ccc(OC(=O)Cc3ccccc3)cc2)cc1

>  <reading-unit>
%

>  <growth>
-90.1

$$$$
>  <compound>
C=COC(=O)CCN1CC1

>  <reading-unit>
%

>  <growth>
114

$$$$
>  <compound>
O=C([O][Hg][c]1ccccc1)c1ccccc1

>  <reading-unit>
%

>  <growth>
-70

$$$$
>  <compound>
O=C(NCCN1CC1)C(=O)NCCN1CC1

>  <reading-unit>
%

>  <growth>
88.7

$$$$
>  <compound>
CC[S][Hg][Cl]

>  <reading-unit>
%

>  <growth>
124

$$$$
>  <compound>
CCCCN(CCCC)P(=O)(Oc1ccccc1)Oc1ccccc1

>  <reading-unit>
%

>  <growth>
75.2

$$$$
>  <compound>
Nc1ccc(-c2nc3cc(F)ccc3[se]2)cc1F

>  <reading-unit>
%

>  <growth>
56.2

$$$$
>  <compound>
O=C(CN1CCN(C(=O)c2ccco2)CC1)Nc1ccc(Cl)cc1C(=O)c1ccccc1Cl

>  <reading-unit>
%

>  <growth>
95.9

$$$$
>  <compound>
N#C[S-].[Au+].c1ccc(CN2[CH-]N(Cc3ccccc3)C(c3ccccc3)=C2c2ccccc2)cc1

>  <reading-unit>
%

>  <growth>
-76.9

$$$$
>  <compound>
CCN1C(=O)C(=C/C=C/c2ccccc2)C(=O)N(CC)C1=O

>  <reading-unit>
%

>  <growth>
93.8

$$$$
>  <compound>
CC(C)(N)Cc1ccccc1

>  <reading-unit>
%

>  <growth>
116

$$$$
>  <compound>
COc1ccc(N(CC(=O)NCCC[Te]c2ccccc2)C(=O)CCSC2=C(C)C(=O)c3ccccc3C2=O)cc1

>  <reading-unit>
%

>  <growth>
-97.9

$$$$
>  <compound>
C=CC[n+]1ccc(-c2cc[n+](CC=C)cc2)cc1

>  <reading-unit>
%

>  <growth>
9.91

$$$$
>  <compound>
O=C1NC(=O)C(=Cc2cn(C(=O)c3ccccc3)c3ccccc23)C(=O)N1

>  <reading-unit>
%

>  <growth>
113

$$$$
>  <compound>
COC(=O)[C@@]1(O)C[C@H]2O[C@]1(C)n1c3ccccc3c3c4c(c5c6ccccc6n2c5c31)C(=O)NC4

>  <reading-unit>
%

>  <growth>
-66.6

$$$$
>  <compound>
OCc1ccc2c(c1)OCO2

>  <reading-unit>
%

>  <growth>
108

$$$$
>  <compound>
CC[C@H](C)[C@H](NC(=O)C12CC(NC(C)=O)(C1)C2)C(=O)N(C)[C@H](C[C@@H](OC(C)=O)c1nc(C(=O)N[C@@H](Cc2ccccc2)C[C@H](C)C(=O)OC)cs1)C(C)C

>  <reading-unit>
%

>  <growth>
-31.5

$$$$
>  <compound>
COc1ccc(N(CC(=O)NCCC[Te]c2ccccc2)C(=O)CNC(=O)OC(C)(C)C)cc1

>  <reading-unit>
%

>  <growth>
86.9

$$$$
>  <compound>
CCOC(=O)N1CC1

>  <reading-unit>
%

>  <growth>
91.3

$$$$
>  <compound>
O=C1Nc2ccccc2C2c3cccn3-c3ccccc3CN12 (stereo not drawn)

>  <reading-unit>
%

>  <growth>
39.5

$$$$

----------
- System: PC-3 prostate
- assay-summary: NCI-60 one-dose screen, 48 h (100 = growth as untreated, 0 = no growth, -100 = all killed)
- measurement-parameters: 10 µM unless noted
The panel holds about 83,000 compounds, 20% with a hit somewhere; the sample as a whole holds those more often.
Reported growth values for a set of compounds

>  <compound>
NC(CCl)CCl

>  <target-under-test>
PC-3 prostate

>  <growth [%]>
104

$$$$
>  <compound>
CC(=O)O[C@H](C[C@H](C(C)C)N(C)C(=O)[C@@H](NC(=O)[C@H]1CCCCN1C)C(C)C)c1nc(C(=O)N[C@@H](Cc2ccccc2)C[C@H](C)C(=O)O)c(CCOCc2ccccc2)s1

>  <target-under-test>
PC-3 prostate

>  <growth [%]>
21.9

$$$$
>  <compound>
CCC1CN1CCCCN1CC1CC (centres undefined)

>  <target-under-test>
PC-3 prostate

>  <growth [%]>
98.5

$$$$
>  <compound>
CN(C)C(=O)Oc1ccccc1-c1ccccc1

>  <target-under-test>
PC-3 prostate

>  <growth [%]>
91.9

$$$$
>  <compound>
CC1=C(CCCOC(=O)[C@H](N)CC(C)C)C2=C(C)C3(CC3)[C@@](C)(O)C(=O)C2=C1

>  <target-under-test>
PC-3 prostate

>  <growth [%]>
28.5

$$$$
>  <compound>
COc1ccc(O)c(CNC(=O)CN2CCCC2=O)c1

>  <target-under-test>
PC-3 prostate

>  <growth [%]>
92.1

$$$$
>  <compound>
CC(C)COC(C[N+](=O)[O-])C(Cl)(Cl)Cl (centres undefined)

>  <target-under-test>
PC-3 prostate

>  <growth [%]>
91

$$$$
>  <compound>
CC(=O)OC1CCC2(C)C(CCC3C2CC(=O)C2(C)C3CC(Sc3ccc(N(CCCl)CCCl)cc3)C2C(C)=O)C1 (centres undefined)

>  <target-under-test>
PC-3 prostate

>  <growth [%]>
85.5

$$$$
>  <compound>
Cc1ccc2c(C(C[N+](=O)[O-])c3cccs3)c(-c3ccccc3)[nH]c2c1 (centres undefined)

>  <target-under-test>
PC-3 prostate

>  <growth [%]>
28

$$$$
>  <compound>
COc1cc(/C=C/[N+](=O)[O-])c([N+](=O)[O-])cc1OC

>  <target-under-test>
PC-3 prostate

>  <growth [%]>
51.5

$$$$
>  <compound>
COc1ccc(-n2c(C)nc3cc(OC)c(OC)cc3c2=O)cc1OC

>  <target-under-test>
PC-3 prostate

>  <growth [%]>
101

$$$$
>  <compound>
O=C(CCl)c1ccc([N+](=O)[O-])o1

>  <target-under-test>
PC-3 prostate

>  <growth [%]>
-23.8

$$$$
>  <compound>
CCCCCCC(=O)NC1=C(N2CC2)C(=O)C(NC(=O)CCCCCC)=C(N2CC2)C1=O

>  <target-under-test>
PC-3 prostate

>  <growth [%]>
35.4

$$$$
>  <compound>
CC1(C)N=C(N)N=C(N)N1c1ccc(CCCCc2ccc(Cl)c(S(=O)(=O)F)c2)c(Cl)c1

>  <target-under-test>
PC-3 prostate

>  <growth [%]>
15.1

$$$$
>  <compound>
Oc1c(CCl)cc(Cl)cc1CCl

>  <target-under-test>
PC-3 prostate

>  <growth [%]>
93.9

$$$$
>  <compound>
COc1ccc(S(=O)(=O)N(Cc2ccc3c(c2)C=CC(C)(C)O3)c2ccccc2)cc1OC

>  <target-under-test>
PC-3 prostate

>  <growth [%]>
73.7

$$$$
>  <compound>
CC1(C)[C@H](O)[C@H](F)C[C@@]2(C)Oc3ccc(C(=O)Nc4ccc5c(c4)NC(=O)C54CCN(CCCCC#N)CC4)cc3C[C@H]12

>  <target-under-test>
PC-3 prostate

>  <growth [%]>
24.4

$$$$
>  <compound>
CC(=O)O[C@H](C[C@H](C(C)C)N(C)C(=O)[C@@H](NC(=O)[C@H]1CCCCN1C)C(C)C)c1nc(C(=O)N[C@@H](Cc2ccccc2)C[C@H](C)C(=O)O)c(C(C)C)s1

>  <target-under-test>
PC-3 prostate

>  <growth [%]>
29.9

$$$$
>  <compound>
COc1ccc(C/C(C)=C(\c2ccc(OCCN3CCOCC3)cc2)c2ccc(OC(=O)Cc3ccccc3)cc2)cc1

>  <target-under-test>
PC-3 prostate

>  <growth [%]>
-1

$$$$
